From: patent EP2676962A1

molecular target: trypsin (Try) (Bos taurus, UniProt P00760); assay: Inhibitory activity toward trypsin, fluorogenic substrate, microplate reader; type: biochemical; details: 10 min pre-incubation at 37°C, pH 7,5, Cbz-Arg-AFC 100µM; NI = brak inhibicji (no inhibition)
Sequence (P00760 24-246): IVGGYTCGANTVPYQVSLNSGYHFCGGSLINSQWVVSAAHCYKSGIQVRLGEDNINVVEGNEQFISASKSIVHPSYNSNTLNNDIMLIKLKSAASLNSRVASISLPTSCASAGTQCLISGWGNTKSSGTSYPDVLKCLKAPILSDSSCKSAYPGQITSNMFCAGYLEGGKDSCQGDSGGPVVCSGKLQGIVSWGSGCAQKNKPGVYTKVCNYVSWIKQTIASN

Compound	Try Kobs/[I]
CSc1ccc(OP(=O)(Oc2ccc(SC)cc2)C(CC(C)C)NC(=O)C2CCCN2C(=O)C(NC(=O)CCCCC2SCC3NC(=O)NC32)C(C)C)cc1 (stereo not drawn)	1.9*10^3 M^-1S^-1
CSc1ccc(OP(=O)(Oc2ccc(SC)cc2)C(Cc2ccccc2)NC(=O)C2CCCN2C(=O)C(NC(=O)CCCCC2SCC3NC(=O)NC32)C(C)C)cc1 (stereo not drawn)	3.7*10^2 M^-1S^-1
CSc1ccc(OP(=O)(Oc2ccc(SC)cc2)C(NC(=O)C(NC(=O)C(NC(=O)C(Cc2ccccc2)NC(=O)CCC(=O)NCCCCCNC(=O)CCCCC2SCC3NC(=O)NC32)C(C)C)C(C)O)c2ccc(NC(=N)N)cc2)cc1 (stereo not drawn)	2.7*10^3 M^-1S^-1
CCC(NC(=O)C1CCCN1C(=O)C(NC(=O)CCCCC1SCC2NC(=O)NC21)C(C)C)P(=O)(Oc1ccc(SC)cc1)Oc1ccc(SC)cc1 (stereo not drawn)	3*10^2 M^-1S^-1
CSc1ccc(OP(=O)(Oc2ccc(SC)cc2)C(CC(C)C)NC(=O)C2CCCN2C(=O)CCCCC2SCC3NC(=O)NC32)cc1 (stereo not drawn)	1*10^3 M^-1S^-1
COC(=O)c1ccc(OP(=O)(Oc2ccc(C(=O)OC)cc2)C(CC(C)C)NC(=O)C2CCCN2C(=O)C(NC(=O)CCCCC2SCC3NC(=O)NC32)C(C)C)cc1 (stereo not drawn)	4.4*10^4 M^-1S^-1

###

Biological target: subtilisin (Sub) (Bacillus licheniformis)
Sequence (P00780 106-379): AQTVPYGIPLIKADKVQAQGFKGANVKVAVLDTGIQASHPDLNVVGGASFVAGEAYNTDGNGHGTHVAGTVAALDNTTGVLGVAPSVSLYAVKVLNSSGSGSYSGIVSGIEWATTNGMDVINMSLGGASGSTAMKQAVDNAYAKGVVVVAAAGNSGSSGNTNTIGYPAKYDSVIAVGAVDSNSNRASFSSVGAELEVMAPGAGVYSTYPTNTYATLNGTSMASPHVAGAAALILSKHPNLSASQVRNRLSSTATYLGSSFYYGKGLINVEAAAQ
Assay: Inhibitory activity toward subtilisin, fluorogenic substrate, microplate reader
Format: biochemical
Conditions: 10 min pre-incubation at 37°C, pH 7,5, Me-Suc-Ala-Ala-Pro-Phe-AMC 5µM; NI = brak inhibicji (no inhibition)
Method: The biological activity of peptidyl derivatives of phosphonic analogs of valine, alanine, phenylalanine, 4-guanidinephenylglycine, leucine, and 1-aminobutyric acid, containing the N-terminal biotin residue were tested for their ability to inhibit proteolytic activity of selected serine proteases, and the control cysteine proteases. All tests were performed using a microplate reader. As enzyme substrates fluorescent peptides were used. […]
Parameter Measured: Sub Kobs/[I]

Compound	Parameter Measured	Observed Measurement
COC(=O)c1ccc(OP(=O)(Oc2ccc(C(=O)OC)cc2)C(CC(C)C)NC(=O)C2CCCN2C(=O)C(NC(=O)CCCCC2SCC3NC(=O)NC32)C(C)C)cc1 (stereo not shown)	Sub Kobs/[I]	5.4*10^4 M^-1S^-1
CC(C)C(NC(=O)CCCCC1SCC2NC(=O)NC21)C(=O)N1CCCC1C(=O)NC(C(C)C)P(=O)(Oc1ccccc1)Oc1ccccc1 (stereo not shown)	Sub Kobs/[I]	2.8*10^3 M^-1S^-1
CSc1ccc(OP(=O)(Oc2ccc(SC)cc2)C(CC(C)C)NC(=O)C2CCCN2C(=O)CCCCC2SCC3NC(=O)NC32)cc1 (stereo not shown)	Sub Kobs/[I]	9.9*10^4 M^-1S^-1
COc1ccc(OP(=O)(Oc2ccc(OC)cc2)C(CC(C)C)NC(=O)C2CCCN2C(=O)C(NC(=O)CCCCC2SCC3NC(=O)NC32)C(C)C)cc1 (stereo not shown)	Sub Kobs/[I]	2.4*10^4 M^-1S^-1

###

Overview of reported pIC50 across a group of molecules:
molecular target: UniProtKB P00780; test: Inhibitory activity toward subtilisin, fluorogenic substrate, microplate reader; format: biochemical
pIC50: −log10 of the molar value.

Molecule	Measured On	pIC50
CSc1ccc(OP(=O)(Oc2ccc(SC)cc2)C(CC(C)C)NC(=O)C2CCCN2C(=O)CCCCC2SCC3NC(=O)NC32)cc1 (centres unmarked)	UniProtKB P00780	7.93
CC(C)CC(NC(=O)C1CCCN1C(=O)C(NC(=O)CCCCC1SCC2NC(=O)NC21)C(C)C)P(=O)(Oc1ccccc1)Oc1ccccc1 (centres unmarked)	UniProtKB P00780	7.12
CC(C)C(NC(=O)CCC(=O)NCCCCCNC(=O)CCCCC1SCC2NC(=O)NC21)C(=O)N1CCCC1C(=O)NC(Cc1ccccc1)P(=O)(Oc1ccccc1)Oc1ccccc1 (centres unmarked)	UniProtKB P00780	7.40
CC(C)C(NC(=O)CCCCC1SCC2NC(=O)NC21)C(=O)N1CCCC1C(=O)NC(Cc1ccccc1)P(=O)(Oc1ccccc1)Oc1ccccc1 (centres unmarked)	UniProtKB P00780	7.94
CSc1ccc(OP(=O)(Oc2ccc(SC)cc2)C(NC(=O)C(NC(=O)C(NC(=O)C(Cc2ccccc2)NC(=O)CCC(=O)NCCCCCNC(=O)CCCCC2SCC3NC(=O)NC32)C(C)C)C(C)O)c2ccc(NC(=N)N)cc2)cc1 (centres unmarked)	UniProtKB P00780	6.32
CC(C)C(NC(=O)CCCCC1SCC2NC(=O)NC21)C(=O)N1CCCC1C(=O)NC(C(C)C)P(=O)(Oc1ccccc1)Oc1ccccc1 (centres unmarked)	UniProtKB P00780	6.38
CSc1ccc(OP(=O)(Oc2ccc(SC)cc2)C(C)NC(=O)C2CCCN2C(=O)C(NC(=O)CCCCC2SCC3NC(=O)NC32)C(C)C)cc1 (centres unmarked)	UniProtKB P00780	7.40
COC(=O)c1ccc(OP(=O)(Oc2ccc(C(=O)OC)cc2)C(CC(C)C)NC(=O)C2CCCN2C(=O)C(NC(=O)CCCCC2SCC3NC(=O)NC32)C(C)C)cc1 (centres unmarked)	UniProtKB P00780	7.67
COc1ccc(OP(=O)(Oc2ccc(OC)cc2)C(CC(C)C)NC(=O)C2CCCN2C(=O)C(NC(=O)CCCCC2SCC3NC(=O)NC32)C(C)C)cc1 (centres unmarked)	UniProtKB P00780	7.32
CSc1ccc(OP(=O)(Oc2ccc(SC)cc2)C(Cc2ccccc2)NC(=O)C2CCCN2C(=O)C(NC(=O)CCCCC2SCC3NC(=O)NC32)C(C)C)cc1 (centres unmarked)	UniProtKB P00780	8.25
CCC(NC(=O)C1CCCN1C(=O)C(NC(=O)CCCCC1SCC2NC(=O)NC21)C(C)C)P(=O)(Oc1ccc(SC)cc1)Oc1ccc(SC)cc1 (centres unmarked)	UniProtKB P00780	6.83

###

Biological target: proteinase 3 (PR3) (Homo sapiens, UniProt P24158)
Sequence (P24158 28-248): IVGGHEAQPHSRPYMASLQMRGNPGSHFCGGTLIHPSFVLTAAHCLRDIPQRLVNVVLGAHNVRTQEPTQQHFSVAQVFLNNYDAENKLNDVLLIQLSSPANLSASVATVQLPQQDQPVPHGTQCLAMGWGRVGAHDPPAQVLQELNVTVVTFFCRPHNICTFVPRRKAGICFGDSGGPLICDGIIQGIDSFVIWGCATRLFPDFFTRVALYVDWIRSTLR
Experiment: Inhibitory activity toward proteinase 3, fluorogenic substrate, microplate reader
Format: biochemical
Overview of reported IC50 across a group of compounds:

Compound	IC50 / nM
COC(=O)c1ccc(OP(=O)(Oc2ccc(C(=O)OC)cc2)C(CC(C)C)NC(=O)C2CCCN2C(=O)C(NC(=O)CCCCC2SCC3NC(=O)NC32)C(C)C)cc1 (stereo not shown) [Compound 9]	59.5
CSc1ccc(OP(=O)(Oc2ccc(SC)cc2)C(NC(=O)C(NC(=O)C(NC(=O)C(Cc2ccccc2)NC(=O)CCC(=O)NCCCCCNC(=O)CCCCC2SCC3NC(=O)NC32)C(C)C)C(C)O)c2ccc(NC(=N)N)cc2)cc1 (stereo not shown) [Compound 11]	603
CCC(NC(=O)C1CCCN1C(=O)C(NC(=O)CCCCC1SCC2NC(=O)NC21)C(C)C)P(=O)(Oc1ccc(SC)cc1)Oc1ccc(SC)cc1 (stereo not shown) [Compound 13]	227
CC(C)C(NC(=O)CCCCC1SCC2NC(=O)NC21)C(=O)N1CCCC1C(=O)NC(C(C)C)P(=O)(Oc1ccccc1)Oc1ccccc1 (stereo not shown) [Compound 2]	728

###

molecular target: subtilisin (Sub) (Bacillus licheniformis); test: Inhibitory activity toward subtilisin, fluorogenic substrate, microplate reader; type: biochemical; conditions: read-out: Sub IC50; 10 min pre-incubation at 37°C, pH 7,5, Me-Suc-Ala-Ala-Pro-Phe-AMC 5µM; NI = brak inhibicji (no inhibition)
pIC50: −log10 of the molar value.
Parameter Measured: pIC50

Compound	Observed Measurement
CSc1ccc(OP(=O)(Oc2ccc(SC)cc2)C(CC(C)C)NC(=O)C2CCCN2C(=O)C(NC(=O)CCCCC2SCC3NC(=O)NC32)C(C)C)cc1 (stereo not shown)	< 5.30

###

molecular target: porcine pancreatic elastase (PPE) (Sus scrofa); assay: Inhibitory activity toward porcine pancreatic elastase, fluorogenic substrate, microplate reader; assay type: biochemical; details: 10 min pre-incubation at 37°C, pH 8,5, Me-Suc-Ala-Ala-Pro-Val-AMC 100µM; NI = brak inhibicji (no inhibition)
Sequence (P00772 27-266): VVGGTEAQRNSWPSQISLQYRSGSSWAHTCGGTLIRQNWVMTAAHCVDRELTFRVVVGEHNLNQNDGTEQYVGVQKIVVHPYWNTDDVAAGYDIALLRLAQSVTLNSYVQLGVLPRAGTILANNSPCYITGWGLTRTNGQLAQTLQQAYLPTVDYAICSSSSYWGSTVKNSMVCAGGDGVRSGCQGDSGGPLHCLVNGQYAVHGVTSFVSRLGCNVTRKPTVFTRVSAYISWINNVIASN

Compound	PPE Kobs/[I]
CSc1ccc(OP(=O)(Oc2ccc(SC)cc2)C(CC(C)C)NC(=O)C2CCCN2C(=O)C(NC(=O)CCCCC2SCC3NC(=O)NC32)C(C)C)cc1 (centres unmarked)	4*10^3 M^-1S^-1
COc1ccc(OP(=O)(Oc2ccc(OC)cc2)C(CC(C)C)NC(=O)C2CCCN2C(=O)C(NC(=O)CCCCC2SCC3NC(=O)NC32)C(C)C)cc1 (centres unmarked)	2*10^2 M^-1S^-1
CC(C)C(NC(=O)CCCCC1SCC2NC(=O)NC21)C(=O)N1CCCC1C(=O)NC(C(C)C)P(=O)(Oc1ccccc1)Oc1ccccc1 (centres unmarked)	4.7*10^3 M^-1S^-1
CSc1ccc(OP(=O)(Oc2ccc(SC)cc2)C(C)NC(=O)C2CCCN2C(=O)C(NC(=O)CCCCC2SCC3NC(=O)NC32)C(C)C)cc1 (centres unmarked)	8.5*10^3 M^-1S^-1
COC(=O)c1ccc(OP(=O)(Oc2ccc(C(=O)OC)cc2)C(CC(C)C)NC(=O)C2CCCN2C(=O)C(NC(=O)CCCCC2SCC3NC(=O)NC32)C(C)C)cc1 (centres unmarked)	<200 M^-1S^-1
